system: LIMK1; conditions: concentration: 1 μM,replicates: in singlicate; n = 1;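 also: KINOMEscan kinase panel screen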
measurementName: %Inh (%)
Only the number, expressed in %, is required.

Some molecules with known %Inh results, for comparison:
>  <molecule>
Cl.Cl.NC[C@H](CC1CCCCC1)NC(=O)c1ccc(-c2ccnc3[nH]ccc23)s1 [GSK1581428]

>  <unit>
%

>  <%Inh>
0

$$$$
>  <molecule>
C[C@@H](Oc1cc(-n2cnc3ccc(-c4ccncc4)cc32)sc1C(N)=O)c1ccccc1Cl [GSK483724]

>  <unit>
%

>  <%Inh>
20

$$$$
>  <molecule>
Cc1nnc(-c2ccc3occ(-c4ccc(S(C)=O)cc4)c3n2)o1 (centres unmarked)

>  <unit>
%

>  <%Inh>
0

$$$$
>  <molecule>
COc1cc2c(Nc3ccc(NC(=O)c4ccccc4)cc3)ncnc2cc1OCCCN1CCOCC1 [GSK301329]

>  <unit>
%

>  <%Inh>
3

$$$$
>  <molecule>
NC(=O)Nc1sc(-c2ccc(F)cc2)cc1C(N)=O [GW789449]

>  <unit>
%

>  <%Inh>
3

$$$$
>  <molecule>
Cl.c1ccc(Oc2ccc(Nc3ccnc4cc(-c5ccc(CN6CCNCC6)o5)ccc34)cc2)nc1 [GW567142]

>  <unit>
%

>  <%Inh>
0

$$$$

Query: Using known records, supply %Inh for c1ccc(Oc2ccc(Nc3ccnc4ccc(-c5ccccn5)cc34)cc2)cc1 [GW407034]
Reply: 5

Query: For CSc1nccc(-c2c(-c3ccc(F)cc3)ncn2CCCN2CCOCC2)n1.Cl [SB-217146] , write its %Inh.
Reply: 3
